The values you see were collected from patent US6872729B2.

System: Erysiphe graminis
Assay: Test for preventive effect on wheat powdery mildew
Assay type: in vivo
Details: wheat (Norin-61-go) seedlings, 500 ppm active ingredient, preventive treatment; diseased area of first leaves 10 days after inoculation with Erysiphe graminis
observable: Biological effectiveness

Exercise: Query Biological effectiveness for COc1nc(OC)nc(-n2c(C(F)(F)F)nc3cc(Br)ccc32)n1 [Compound I-311]
Solution: A (No diseased area)

Exercise: Query Biological effectiveness for CCCc1nc(OC)nc(-n2c(C(F)(F)F)nc3cc(C)ccc32)n1 [Compound I-1004]
Solution: A (No diseased area)

====

Each item that follows carries a reported melting point.

Field: example entries. Status: answers known.
Exercise: Query melting point for COc1cc(OC)nc(-n2c(C)nc3cc(C)ccc32)n1
Solution: 163 to 166 °C

Exercise: Query melting point for COc1cc(OC)nc(-n2c(OC)nc3ccccc32)n1
Solution: 121 to 122 °C

Exercise: Query melting point for COc1nc(OC)nc(-n2c(Cl)nc3cc(Cl)ccc32)n1
Solution: 146 to 149 °C

Exercise: Query melting point for COc1cc(OC)nc(-n2c(Cl)nc3cc(C)ccc32)n1
Solution: 145 to 148 °C

Exercise: Query melting point for COc1nc(OC)nc(-n2c(N)nc3cc(Cl)ccc32)n1
Solution: 293 to 296 °C

Exercise: Query melting point for COc1nc(OC)nc(-n2c(C(F)(F)F)nc3cc(C)ccc32)n1
Solution: 137 to 140 °C

Exercise: Query melting point for COc1cc(OC)nc(-n2c(N)nc3cc(C)ccc32)n1
Solution: > 300 °C

Exercise: Query melting point for CSc1nc(SC)nc(-n2c(C)nc3ccccc32)n1
Solution: 176 to 179 °C

Continuing:
Exercise: Query melting point for COc1nc(OC)nc(-n2c(C)nc3cc(Cl)ccc32)n1
Solution: 173 to 176 °C

Exercise: Query melting point for Cc1nc2ccccc2n1-c1nc(Cl)nc(Cl)n1
Solution: > 300 °C

Exercise: Query melting point for COc1cc(OC)nc(-n2c(SC)nc3ccccc32)n1
Solution: 135 to 137 °C

====

Tested on: Erysiphe graminis
Experiment: Test for preventive effect on wheat powdery mildew
Format: in vivo
Details: wheat (Norin-61-go) seedlings, 500 ppm active ingredient, preventive treatment; diseased area of first leaves 10 days after inoculation with Erysiphe graminis
observable: Biological effectiveness

Exercise: Query Biological effectiveness for CCOc1ccnc(-n2c(C)nc3cc(C)ccc32)n1
Solution: A (No diseased area)

Exercise: Query Biological effectiveness for CCCc1nc2cc(Cl)ccc2n1-c1nc(OC)nc(OC)n1
Solution: A (No diseased area)

Exercise: Query Biological effectiveness for CCOc1nc(OCC)nc(-n2c(C(F)(F)F)nc3cc(OC)ccc32)n1
Solution: A (No diseased area)

====

System: Erysiphe graminis
Assay: Test for preventive effect on wheat powdery mildew
Format: in vivo
Conditions: wheat (Norin-61-go) seedlings, 500 ppm active ingredient, preventive treatment; diseased area of first leaves 10 days after inoculation with Erysiphe graminis
observable: Biological effectiveness

Exercise: Provide Biological effectiveness, tested on Erysiphe graminis, for COc1nc(OC)nc(-n2c(C)nc3ccc(C)cc32)n1 .
Solution: A (No diseased area)

Exercise: Provide Biological effectiveness, tested on Erysiphe graminis, for COc1nc(C)nc(-n2c(C)nc3cc(C)ccc32)n1 .
Solution: A (No diseased area)

Exercise: Provide Biological effectiveness, tested on Erysiphe graminis, for COc1ccnc(-n2c(C(F)(F)F)nc3cc(Cl)ccc32)n1 .
Solution: A (No diseased area)

====

Test system: Erysiphe graminis
Test: Test for preventive effect on wheat powdery mildew
Assay type: in vivo
Settings: wheat (Norin-61-go) seedlings, 500 ppm active ingredient, preventive treatment; diseased area of first leaves 10 days after inoculation with Erysiphe graminis
observable: Biological effectiveness

Exercise: Query Biological effectiveness for COc1nc(OC)nc(-n2cnc3cc(Cl)c(Cl)cc32)n1 [Compound I-175]
Solution: A (No diseased area)

Exercise: Query Biological effectiveness for COc1nc(OC)nc(-n2c(C)nc3cc(I)ccc32)n1 [Compound I-217]
Solution: A (No diseased area)

Exercise: Query Biological effectiveness for CCOc1nc(OCC)nc(-n2c(C)nc3cc(Cl)ccc32)n1 [Compound I-514]
Solution: A (No diseased area)

Exercise: Query Biological effectiveness for COc1cc(OC)nc(-n2c(C(F)(F)F)nc3ccc(C)cc32)n1 [Compound I-307]
Solution: A (No diseased area)

Exercise: Query Biological effectiveness for COc1nc(OC)nc(-n2c(C)nc3cc(C(C)=O)ccc32)n1 [Compound I-234]
Solution: A (No diseased area)

Continuing:
Exercise: Query Biological effectiveness for CCOc1cc(OCC)nc(-n2c(C)nc3ccc(OC)cc32)n1 [Compound I-511]
Solution: A (No diseased area)

Exercise: Query Biological effectiveness for COc1cc(OC)nc(-n2c(C(Cl)(Cl)Cl)nc3cc(Cl)ccc32)n1 [Compound I-400]
Solution: A (No diseased area)

Exercise: Query Biological effectiveness for CCc1ccc2c(c1)nc(C(F)(F)F)n2-c1nc(OC)nc(OC)n1 [Compound I-313]
Solution: A (No diseased area)

Exercise: Query Biological effectiveness for COc1cc(OC)nc(-n2c(CCl)nc3ccccc32)n1 [Compound I-23]
Solution: A (No diseased area)

Exercise: Query Biological effectiveness for CCOc1nc(OCC)nc(-n2c(C)nc3cc(C)ccc32)n1 [Compound I-516]
Solution: A (No diseased area)

Exercise: Query Biological effectiveness for CCOc1nc(OCC)nc(-n2c(C(F)(F)F)nc3cc(Br)ccc32)n1 [Compound I-546]
Solution: A (No diseased area)

Exercise: Query Biological effectiveness for COc1nc(OC)nc(-n2c(C(F)(F)F)nc3cc(F)ccc32)n1 [Compound I-309]
Solution: A (No diseased area)

====

Test system: Erysiphe graminis
Experiment: Test for preventive effect on wheat powdery mildew
Assay type: in vivo
Settings: wheat (Norin-61-go) seedlings, 500 ppm active ingredient, preventive treatment; diseased area of first leaves 10 days after inoculation with Erysiphe graminis
observable: Biological effectiveness

Exercise: Query Biological effectiveness for CCOc1cc(OCC)nc(-n2cnc3cc(C(F)(F)F)ccc32)n1 [Compound I-483]
Solution: A (No diseased area)

Exercise: Query Biological effectiveness for CCOc1cc(OCC)nc(-n2cnc3cc(Cl)ccc32)n1 [Compound I-480]
Solution: A (No diseased area)

Exercise: Query Biological effectiveness for COc1nc(OC)nc(-n2c(C)nc3cc(Br)ccc32)n1 [Compound I-216]
Solution: A (No diseased area)

Exercise: Query Biological effectiveness for CCc1nc2cc(C)ccc2n1-c1nc(OC)cc(OC)n1 [Compound I-334]
Solution: A (No diseased area)

Exercise: Query Biological effectiveness for CCOc1cc(C)nc(-n2cnc3ccccc32)n1 [Compound I-768]
Solution: A (No diseased area)

Exercise: Query Biological effectiveness for COc1cc(OC)nc(-n2c(C(F)(F)F)nc3cc(C)ccc32)n1 [Compound I-298]
Solution: A (No diseased area)

Exercise: Query Biological effectiveness for COc1ccc2c(c1)nc(C(F)(F)F)n2-c1nc(OC)nc(OC)n1 [Compound I-318]
Solution: A (No diseased area)

Exercise: Query Biological effectiveness for CCc1cc(CC)nc(-n2c(C)nc3cc(Cl)ccc32)n1 [Compound I-1096]
Solution: A (No diseased area)

Exercise: Query Biological effectiveness for COc1nc(OC)nc(-n2c(C)nc3ccccc32)n1 [Compound I-45]
Solution: A (No diseased area)

Exercise: Query Biological effectiveness for CCOc1cc(OCC)nc(-n2cnc3cc(C)ccc32)n1 [Compound I-482]
Solution: A (No diseased area)

Continuing:
Exercise: Query Biological effectiveness for COc1cc(OC)nc(-n2c(C(F)(F)F)nc3ccccc32)n1 [Compound I-26]
Solution: A (No diseased area)

Exercise: Query Biological effectiveness for C=CCOc1nc(OCC=C)nc(-n2c(C)nc3cc(Cl)ccc32)n1 [Compound I-601]
Solution: A (No diseased area)

====

observable: melting point

Field: example entries. Status: answers known.
Exercise: Query melting point for COc1cc(OC)nc(-n2c(S(C)(=O)=O)nc3ccccc32)n1
Solution: 114 to 117 °C

Exercise: Query melting point for COc1ccnc(-n2cnc3ccccc32)n1
Solution: 114 to 116 °C

Below: the item to evaluate.
Exercise: Query melting point for COc1cc(OC)nc(-n2c(C(F)(F)F)nc3cc(C)ccc32)n1
Solution: 93 to 96 °C
